I'd appreciate it if you could supply pIC50 values for the items below.
- Assay Target: low affinity glucocorticoid binding site (LAGS) in rat liver microsomes (Rattus norvegicus, UniProt P70580)
- Sequence (P70580 2-195): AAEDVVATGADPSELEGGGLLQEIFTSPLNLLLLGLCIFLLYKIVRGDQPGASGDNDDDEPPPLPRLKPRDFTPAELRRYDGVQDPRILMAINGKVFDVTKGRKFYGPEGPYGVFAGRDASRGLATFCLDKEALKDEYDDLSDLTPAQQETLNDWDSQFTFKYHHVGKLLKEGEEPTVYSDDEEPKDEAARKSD
- Assay Explanation: Competition with radiolabelled dexamethasone for specific binding to rat liver microsomes (LAGS activity)
- Measurement Setup: read-out: IC50% (competition of dexamethasone derivatives for binding to rat liver microsomes); Additional file 2; vs radiolabelled dexamethasone
Counter-ions that a name gives are not always drawn.
Numbers only, as −log10 of the molar value.

[[record]]
compound = "CC1CC2C3CCC4=CC(=O)C=CC4(C)C3(F)C(O)CC2(C)C1(O)C(=O)O (centres unmarked)"
assay_value = 4.00


Let's switch to this compound now.
For reference, reported pIC50 for C[C@@H]1C[C@H]2[C@@H]3CCC4=CC(=O)C=C[C@]4(C)[C@@]3(F)[C@@H](O)C[C@]2(C)[C@@]1(O)C(=O)COS(C)(=O)=O [dexamethasone mesylate] stands at 5.00
